Test system: TDF
Assay: cell number relative to DMSO (% of DMSO); higher = more cells (less growth inhibition / toxicity)
Settings: concentration: 10 µM; 24 h
cell number below 100 gives f; cell number at or above it gives t.

[
  {
    "COMPOUND": "C[N+]1(CCCCC[N+]2(C)CCCC2)CCCC1.O=C([O-])C(O)C(O)C(=O)O.O=C([O-])C(O)C(O)C(=O)O [Pentolinium di[L(+)-tartrate]]",
    "LABEL": "t"
  },
  {
    "COMPOUND": "Cn1nnc2c(C(N)=O)ncn2c1=O [Temozolomide]",
    "LABEL": "f"
  },
  {
    "COMPOUND": "CN(C)C1C(=O)C(C(N)=O)=C(O)C2(O)C(=O)C3=C(O)c4c(O)ccc(Cl)c4C(O)C3CC12.Cl (stereo not drawn) [Demeclocycline hydrochloride]",
    "LABEL": "f"
  },
  {
    "COMPOUND": "Cc1cc(I)ccc1Nc1c(C(=O)NOCC2CC2)cc(F)c(F)c1F",
    "LABEL": "f"
  },
  {
    "COMPOUND": "O=c1cc(O)cc(C=Cc2ccc(O)c(O)c2)o1 [Hispidin]",
    "LABEL": "f"
  },
  {
    "COMPOUND": "c1ccc(CNc2nc(NCc3ccccc3)c3ccccc3n2)cc1 [N~2~,N~4~-dibenzyl-2,4-quinazolinediamine]",
    "LABEL": "f"
  },
  {
    "COMPOUND": "CCCCC=CCCCCCCCCC(=O)O [10(E)-Pentadecenoic acid]",
    "LABEL": "f"
  },
  {
    "COMPOUND": "COC(=O)Nc1nc2ccc(Sc3ccccc3)cc2[nH]1 [Fenbendazole]",
    "LABEL": "f"
  },
  {
    "COMPOUND": "OCC1OC(OC2OC=CC3C(O)C4OC4(CO)C23)C(O)C(O)C1O (stereo not drawn) [Catalpol]",
    "LABEL": "t"
  },
  {
    "COMPOUND": "CC(NC(CCc1ccccc1)C(=O)O)C(=O)N1CCCC1C(=O)O (stereo not drawn) [Enalaprilat]",
    "LABEL": "f"
  },
  {
    "COMPOUND": "O=c1[nH]c2ccccc2n1CCN1CCN(c2cccc(C(F)(F)F)c2)CC1",
    "LABEL": "t"
  },
  {
    "COMPOUND": "CC12CCC3c4ccc(O)cc4CCC3C1CCC2O (stereo not drawn) [Estradiol]",
    "LABEL": "f"
  }
]

----------
Tested on: TDF
Experiment: cell number relative to DMSO (% of DMSO); higher = more cells (less growth inhibition / toxicity)
Details: concentration: 10 µM; 24 h

[
  {
    "MOLECULE": "CCC12CCCN3CCc4c(n(c5ccccc45)C(=O)C1)C32 (single isomer, unassigned; (-)) [(-)-Eburnamonine]",
    "EXPERIMENTAL_SYSTEM": "TDF",
    "cell number": 58.5
  },
  {
    "MOLECULE": "COc1cc2c(c(OC)c1OC)-c1c(cc(OC)c(OC)c1OC)C[C@](C)(O)[C@@H](C)C2",
    "EXPERIMENTAL_SYSTEM": "TDF",
    "cell number": 108
  },
  {
    "MOLECULE": "Nc1cc(-c2ccncc2)c[nH]c1=O",
    "EXPERIMENTAL_SYSTEM": "TDF",
    "cell number": 105
  },
  {
    "MOLECULE": "CSc1nc(-c2ccnc(NC(C)c3ccccc3)c2)c(-c2ccc(F)cc2)[nH]1 (stereo not drawn)",
    "EXPERIMENTAL_SYSTEM": "TDF",
    "cell number": 107
  },
  {
    "MOLECULE": "N=c1nc(N2CCCCC2)cc(N)n1O",
    "EXPERIMENTAL_SYSTEM": "TDF",
    "cell number": 105
  },
  {
    "MOLECULE": "CC(C)NCC(O)COc1ccc(CC(N)=O)cc1 (stereo not drawn) [R(+)-Atenolol]",
    "EXPERIMENTAL_SYSTEM": "TDF",
    "cell number": 109
  },
  {
    "MOLECULE": "NC(C(=O)NC1C(=O)N2C(C(=O)O)=C(Cl)CSC12)c1ccccc1 (stereo not drawn)",
    "EXPERIMENTAL_SYSTEM": "TDF",
    "cell number": 99.5
  },
  {
    "MOLECULE": "c1ccc2c(Oc3nc(Nc4ccc(N5CCOCC5)cc4)c4ncn(C5CCCCC5)c4n3)cccc2c1",
    "EXPERIMENTAL_SYSTEM": "TDF",
    "cell number": 92.2
  }
]

----------
Entries and their H1.0 immunofluorescence intensity
Test system: HCC1569
Assay: H1.0 immunofluorescence intensity relative to DMSO (% of DMSO); higher = stronger H1.0 induction, active = 140 or more
Conditions: concentration: 10 µM; 24 h
PARAMETER_MEASURED: H1.0 immunofluorescence intensity

[
  {
    "MOLECULE": "O=C1Nc2cc(Br)ccc2C1=C1N=c2ccccc2=C1NO [GSK-3 Inhibitor IX]",
    "EXPERIMENTAL_SYSTEM": "HCC1569",
    "MEASURED_RESULT": 222
  },
  {
    "MOLECULE": "OCc1ccc(-c2nn(Cc3ccccc3)c3ccccc23)o1",
    "EXPERIMENTAL_SYSTEM": "HCC1569",
    "MEASURED_RESULT": 106
  },
  {
    "MOLECULE": "O=C(C=CC=Cc1ccc2c(c1)OCO2)N1CCCCC1 [Piperine]",
    "EXPERIMENTAL_SYSTEM": "HCC1569",
    "MEASURED_RESULT": 104
  },
  {
    "MOLECULE": "CC(C)[N+]1(C)C2CCC1CC(OC(=O)C(CO)c1ccccc1)C2.[Br-] (stereo not given) [Ipratropium.Br]",
    "EXPERIMENTAL_SYSTEM": "HCC1569",
    "MEASURED_RESULT": 110
  },
  {
    "MOLECULE": "COc1cc(OC)cc(-c2cc3cnc(N)nc3nc2NC(=O)NC(C)(C)C)c1",
    "EXPERIMENTAL_SYSTEM": "HCC1569",
    "MEASURED_RESULT": 139
  }
]

----------
System: TDF
Experiment: H1.0 immunofluorescence intensity relative to DMSO (% of DMSO); higher = stronger H1.0 induction, active = 120 or more
Conditions: concentration: 10 µM; 24 h
As shown below, each of these compounds has a reported H1.0 immunofluorescence intensity value.

[
  {
    "COMPOUND": "CN(c1ncccc1CNc1nc(Nc2ccc3c(c2)CC(=O)N3)ncc1C(F)(F)F)S(C)(=O)=O",
    "H1.0 immunofluorescence intensity": 116
  },
  {
    "COMPOUND": "CC[N+](C)(C)c1cccc(O)c1.[Cl-] [Edrophonium chloride]",
    "H1.0 immunofluorescence intensity": 96.1
  },
  {
    "COMPOUND": "CCCn1c(=O)c2c(ncn2C)n(CCC)c1=O",
    "H1.0 immunofluorescence intensity": 93.1
  },
  {
    "COMPOUND": "Cc1cccc(Nc2ccccc2C(=O)O)c1C",
    "H1.0 immunofluorescence intensity": 104
  },
  {
    "COMPOUND": "CCOC(=O)C(C)(C)Oc1ccc(Cl)cc1 [Clofibrate]",
    "H1.0 immunofluorescence intensity": 99.5
  }
]

----------
System: HCC1569
Assay: cell number relative to DMSO (% of DMSO); higher = more cells (less growth inhibition / toxicity)
Settings: concentration: 10 µM; 24 h
// reported cell number for each item listed

[
  {
    "COMPOUND": "CN1CCC(c2c(O)cc(O)c3c(=O)cc(-c4ccccc4Cl)oc23)C(O)C1 (stereo not given)",
    "cell number": 59.4
  },
  {
    "COMPOUND": "CCOC(=O)c1cnc2c(cnn2CC)c1NN=C(C)C.Cl [Etazolate hydrochloride]",
    "cell number": 107
  },
  {
    "COMPOUND": "CCCCCCCCCCCCCCCCOCC(CO)OC (stereo not given)",
    "cell number": 103
  },
  {
    "COMPOUND": "O=C(O)c1cc(=O)c2ccc(Cl)cc2[nH]1",
    "cell number": 96.9
  },
  {
    "COMPOUND": "CC(C=CC1=C(C)CCCC1(C)C)=CC=CC(C)=CC(=O)Nc1ccc(O)cc1 [Fenretinide]",
    "cell number": 51.1
  },
  {
    "COMPOUND": "O=C(CCCCCCC(=O)Nc1ccccc1)NO",
    "cell number": 101
  },
  {
    "COMPOUND": "O=C(O)CO.[NH2-].[NH2-].[Pt+2]",
    "cell number": 94.6
  },
  {
    "COMPOUND": "CC(Nc1nc(N2CCCC2)nc2ccccc12)c1ccccc1 (stereo not given) [N-(1-phenylethyl)-N-[2-(1-pyrrolidinyl)-4-quinazolinyl]amine]",
    "cell number": 83.8
  },
  {
    "COMPOUND": "CC[N+](C)(C)c1cccc(O)c1.[Cl-] [Edrophonium chloride]",
    "cell number": 102
  },
  {
    "COMPOUND": "COc1cccc(/C=N/CC/N=C/c2cccc(OC)c2[O-])c1[O-].[Cl-].[Mn+2]",
    "cell number": 99.1
  },
  {
    "COMPOUND": "CC(C)=CCCC(C)(O)C1CCC2(C)C1CCC1C3(C)CCC(=O)C(C)(C)C3CCC12C (stereo not given)",
    "cell number": 95.8
  },
  {
    "COMPOUND": "CC(=O)NC(CSCC=C(C)CCC=C(C)CCC=C(C)C)C(=O)O (stereo not given)",
    "cell number": 100
  },
  {
    "COMPOUND": "CCCCCCCCC=CCCCCCCCC(=O)O [9(E)-Octadecenoic acid]",
    "cell number": 100
  },
  {
    "COMPOUND": "O=C(O)Cc1c[nH]c2ccc(O)cc12 [(5-hydroxy-3H-indol-3-yl)acetic acid]",
    "cell number": 105
  },
  {
    "COMPOUND": "CC(C)Cc1ccc(C(C)C(=O)O)cc1 (stereo not drawn) [S(+)-Ibuprofen]",
    "cell number": 103
  },
  {
    "COMPOUND": "CC(C)NCC(O)c1ccc(O)c(O)c1 (racemic)",
    "cell number": 107
  },
  {
    "COMPOUND": "CC(C)(C)NCC(O)c1ccc(O)c(CO)c1.CC(C)(C)NCC(O)c1ccc(O)c(CO)c1.O=S(=O)(O)O (stereo not given) [Salbutamol hemisulfate]",
    "cell number": 99.9
  },
  {
    "COMPOUND": "C=C1CCC(O)CC1=CC=C1CCCC2(C)C1CCC2C(C)CCCC(C)(C)O (stereo not given)",
    "cell number": 97.4
  },
  {
    "COMPOUND": "CCCCCC(O)C=CC1C=CC(=O)C1CCCCCCC(=O)O (stereo not given)",
    "cell number": 97
  },
  {
    "COMPOUND": "O=C(CCCc1ccc(-c2ccccc2F)cc1)Nc1ccc(O)cc1",
    "cell number": 79
  },
  {
    "COMPOUND": "Cc1ccc2c(c1)C(N1CCN(C)CC1)=Nc1cccnc1N2",
    "cell number": 103
  },
  {
    "COMPOUND": "Cn1c(=O)c2[nH]cnc2n(C)c1=O [Theophylline]",
    "cell number": 100
  },
  {
    "COMPOUND": "Nc1ncnc2n[nH]c(Nc3ccc(F)cc3)c12",
    "cell number": 95.7
  },
  {
    "COMPOUND": "CC(C)c1cc(/C=C(\\C#N)C(=O)NCCCc2ccccc2)cc(C(C)C)c1O",
    "cell number": 89.5
  },
  {
    "COMPOUND": "CCC=CCC=CCC=CCC=CCC=CCCCC(=O)O [Eicosapentaenoic acid]",
    "cell number": 106
  },
  {
    "COMPOUND": "NCCCCCC(=O)O",
    "cell number": 101
  },
  {
    "COMPOUND": "CC1OC(Oc2c(-c3cc(O)c(O)c(O)c3)oc3cc(O)cc(O)c3c2=O)C(O)C(O)C1O (stereo not given)",
    "cell number": 103
  },
  {
    "COMPOUND": "O=C(CCc1ccc(O)cc1)c1c(O)cc(O)cc1O",
    "cell number": 97.7
  },
  {
    "COMPOUND": "COc1ccc2cc1Oc1ccc(cc1)CC1c3cc(c(OC)cc3CCN1C)Oc1c(OC)c(OC)c(OC)c3c1C(C2)N(C)CC3 (stereo not given)",
    "cell number": 93.5
  },
  {
    "COMPOUND": "CN(C)C(=O)COC(=O)Cc1ccc(OC(=O)c2ccc(N=C(N)N)cc2)cc1.CS(=O)(=O)O",
    "cell number": 99.4
  },
  {
    "COMPOUND": "NCC(O)(CS(=O)(=O)O)c1ccc(Cl)cc1 (stereo not given) [2-Hydroxysaclofen]",
    "cell number": 101
  },
  {
    "COMPOUND": "O=C1CSc2ccccc2N1Cc1cccc(C(F)(F)F)c1 [4-[3-(trifluoromethyl)benzyl]-2H-1,4-benzothiazin-3(4H)-one]",
    "cell number": 102
  },
  {
    "COMPOUND": "C[Se]CCC(N)C(=O)O (stereo not given)",
    "cell number": 100
  },
  {
    "COMPOUND": "COc1cc2nc(N(C)CCCNC(=O)C3CCCO3)nc(N)c2cc1OC (stereo not given)",
    "cell number": 99.7
  },
  {
    "COMPOUND": "CC(C)CC(NC(=O)C(Cc1ccccc1)NC(=O)c1cnccn1)B(O)O (stereo not given)",
    "cell number": 34.2
  }
]
